Tested on: 3D7 strain of P. falciparum
Protocol Notes: Antimalarial activity, parasite growth in human erythrocytes (YOYO-1 flow cytometry), 3D7 strain
Format: cell-based
Condition Label: Plasmodium falciparum, 3D7, Erythrocyte; 72 hr growth period, eight-point dose-response
Endpoint Label: EC50 (nM)

{"Compound": "O=C(CCC1(CCOC(=O)N2CCN(c3ccccc3)CC2)OOC2(O1)C1CC3CC(C1)CC2C3)NCCN1CCOCC1 (stereo not shown)", "Study Target": "3D7 strain of P. falciparum", "Endpoint Label": "EC50", "Display Unit": "nM", "Measured Result": 9}
{"Compound": "O=C(CCC1(CCOC(=O)N(CCCNc2ccnc3cc(Cl)ccc23)Cc2ccco2)OOC2(O1)C1CC3CC(C1)CC2C3)NCCN1CCOCC1 (stereo not shown)", "Study Target": "3D7 strain of P. falciparum", "Endpoint Label": "EC50", "Display Unit": "nM", "Measured Result": 38}
{"Compound": "O=C(CCC1(CCOC(=O)Nc2cc(Cl)ccc2Cl)OOC2(O1)C1CC3CC(C1)CC2C3)NCCN1CCOCC1 (stereo not shown)", "Study Target": "3D7 strain of P. falciparum", "Endpoint Label": "EC50", "Display Unit": "nM", "Measured Result": 16}
{"Compound": "CN(Cc1ccccc1)C(=O)OCCC1(CCC(=O)NCCN2CCOCC2)OOC2(O1)C1CC3CC(C1)CC2C3 (stereo not shown)", "Study Target": "3D7 strain of P. falciparum", "Endpoint Label": "EC50", "Display Unit": "nM", "Measured Result": 16}
